test system: W2 strain of P. falciparum; test: Antimalarial activity, parasite growth in human erythrocytes (YOYO-1 flow cytometry), W2 strain; format: cell-based; settings: Plasmodium falciparum, W2, Erythrocyte; 72 hr growth period, eight-point dose-response

{"compound": "O=C(CCC1(CCOC(=O)N2CCN(c3ccccc3)CC2)OOC2(O1)C1CC3CC(C1)CC2C3)NCCN1CCOCC1 (stereo not shown) [Cmpd 45]", "EC50 [nM]": 4.9}
{"compound": "O=C(CCC1(CCOC(=O)N(CCCNc2ccnc3cc(Cl)ccc23)Cc2ccco2)OOC2(O1)C1CC3CC(C1)CC2C3)NCCN1CCOCC1 (stereo not shown) [Cmpd 48]", "EC50 [nM]": 62}
{"compound": "O=C(CCC1(CCOC(=O)Nc2cc(Cl)ccc2Cl)OOC2(O1)C1CC3CC(C1)CC2C3)NCCN1CCOCC1 (stereo not shown) [Cmpd 40]", "EC50 [nM]": 24}
{"compound": "CN(Cc1ccccc1)C(=O)OCCC1(CCC(=O)NCCN2CCOCC2)OOC2(O1)C1CC3CC(C1)CC2C3 (stereo not shown) [Cmpd 47]", "EC50 [nM]": 15}
